# Test system: Staphylococcus aureus
# experimental-protocol: Antibacterial activity against methicillin-susceptible Staphylococcus aureus by microdilution broth method
# Format: functional
Measured MIC, listed per entry for reference.
Phrase the answer as number then unit, nothing more needed.

Examples with answers:
COc1ccc(S(=O)(=O)N2CCN(c3ccc(N4C[C@H](Cn5ccnn5)OC4=O)cc3F)CC2)cc1 : 1 µg/mL
O=C1O[C@@H](Cn2ccnn2)CN1c1ccc(N2CCN(S(=O)(=O)c3cccc(F)c3)CC2)c(F)c1 : 0.001 µg/mL

Inquiry: Output measured MIC for this item: O=C1O[C@@H](Cn2ccnn2)CN1c1ccc(N2CCN(S(=O)(=O)c3ccc(F)cc3F)CC2)c(F)c1
Reply text: 2 µg/mL

Inquiry: Name the recorded MIC of the compound listed here: O=C(OCc1ccccc1)N1CCN(c2ccc(N3C[C@H](Cn4ccnn4)OC3=O)cc2F)CC1
Reply text: 0.25 µg/mL

Inquiry: Hello, please tell me recorded MIC for this one: O=C1O[C@@H](Cn2ccnn2)CN1c1ccc(N2CCN(S(=O)(=O)c3ccc(Cl)cc3)CC2)c(F)c1
Reply text: 0.125 µg/mL

Inquiry: Identify MIC associated with the compound Nc1cccc(S(=O)(=O)N2CCN(c3ccc(N4C[C@H](Cn5ccnn5)OC4=O)cc3F)CC2)c1
Reply text: 0.125 µg/mL

Inquiry: # return recorded MIC for entry O=C1O[C@@H](Cn2ccnn2)CN1c1ccc(N2CCN(S(=O)(=O)c3ccccc3C(F)(F)F)CC2)c(F)c1
Reply text: 1 µg/mL

Inquiry: Given the compound O=C1O[C@@H](Cn2ccnn2)CN1c1ccc(N2CCN(S(=O)(=O)c3cccs3)CC2)c(F)c1 , write its reported MIC.
Reply text: 1 µg/mL

Inquiry: Fill in MIC for record O=C1O[C@@H](Cn2ccnn2)CN1c1ccc(N2CCN(S(=O)(=O)c3ccc(C(F)(F)F)cc3)CC2)c(F)c1
Reply text: 0.5 µg/mL

Inquiry: Retrieve MIC measured for O=C1O[C@@H](Cn2ccnn2)CN1c1ccc(N2CCN(S(=O)(=O)c3ccccc3[N+](=O)[O-])CC2)c(F)c1 and print it.
Reply text: 0.5 µg/mL

Inquiry: Complete the entry with MIC for O=C1O[C@@H](Cn2ccnn2)CN1c1ccc(N2CCN(S(=O)(=O)c3ccc(Br)cc3)CC2)c(F)c1
Reply text: 4 µg/mL

Inquiry: Consider the compound O=C1O[C@@H](Cn2ccnn2)CN1c1ccc(N2CCN(S(=O)(=O)c3cccc([N+](=O)[O-])c3)CC2)c(F)c1 and give its recorded MIC.
Reply text: 0.06 µg/mL

Inquiry: Using the record for O=C1O[C@@H](Cn2ccnn2)CN1c1ccc(N2CCN(S(=O)(=O)c3ccc(F)cc3)CC2)c(F)c1 , state its measured MIC.
Reply text: 0.5 µg/mL

Inquiry: Input O=C1O[C@@H](Cn2ccnn2)CN1c1ccc(N2CCN(S(=O)(=O)c3ccc([N+](=O)[O-])cc3)CC2)c(F)c1 , output reported MIC.
Reply text: 1 µg/mL

----------
The following compounds are listed with their measured MIC values.
# Tested on: Streptococcus pneumoniae
# experimental-protocol: Antibacterial activity against penicillin-resistant Streptococcus pneumoniae by microdilution broth method
# Type: functional

Look over these answered cases.
N#Cc1ccc(S(=O)(=O)N2CCN(c3ccc(N4C[C@H](Cn5ccnn5)OC4=O)cc3F)CC2)cc1 : 4 mg/L
O=C1O[C@@H](Cn2ccnn2)CN1c1ccc(N2CCN(S(=O)(=O)c3ccc([N+](=O)[O-])cc3)CC2)c(F)c1 : 0.5 mg/L
Cc1ccc(S(=O)(=O)N2CCN(c3ccc(N4C[C@H](Cn5ccnn5)OC4=O)cc3F)CC2)cc1 : 1 mg/L
COc1ccc(S(=O)(=O)N2CCN(c3ccc(N4C[C@H](Cn5ccnn5)OC4=O)cc3F)CC2)cc1 : 0.5 mg/L

Inquiry: Check the records and state MIC for O=C(OCc1ccccc1)N1CCN(c2ccc(N3C[C@H](Cn4ccnn4)OC3=O)cc2F)CC1
Reply text: 0.5 mg/L

Inquiry: Query MIC for O=C1O[C@@H](Cn2ccnn2)CN1c1ccc(N2CCN(S(=O)(=O)c3ccc(F)cc3)CC2)c(F)c1
Reply text: 0.5 mg/L

Inquiry: Report MIC, nothing else, for this compound: O=C1O[C@@H](Cn2ccnn2)CN1c1ccc(N2CCN(S(=O)(=O)c3ccccc3[N+](=O)[O-])CC2)c(F)c1
Reply text: 0.5 mg/L

----------
# Tested on: Staphylococcus aureus
# experimental-protocol: Antibacterial activity against methicillin-resistant Staphylococcus aureus by microdilution broth method
# Type: functional
result-type: MIC (µg/mL)
Numbers only; they are read as µg/mL.

Recorded MIC, per entry:
O=C1O[C@@H](Cn2ccnn2)CN1c1ccc(N2CCN(S(=O)(=O)c3ccc(Cl)cc3)CC2)c(F)c1 : 0.5
O=C1O[C@@H](Cn2ccnn2)CN1c1ccc(N2CCN(S(=O)(=O)c3ccccc3C(F)(F)F)CC2)c(F)c1 : 0.5
N#Cc1ccc(S(=O)(=O)N2CCN(c3ccc(N4C[C@H](Cn5ccnn5)OC4=O)cc3F)CC2)cc1 : 0.5

Inquiry: Look up MIC of O=C1O[C@@H](Cn2ccnn2)CN1c1ccc(N2CCN(S(=O)(=O)c3ccccc3[N+](=O)[O-])CC2)c(F)c1 and report it.
Reply text: 1

----------
# Tested on: Streptococcus pneumoniae
# experimental-protocol: Antibacterial activity against penicillin-resistant Streptococcus pneumoniae by microdilution broth method
# Format: functional
# y = MIC below 0.5 µg/mL (exclusive); n = MIC at/above 0.5 µg/mL

Here's what some known entries look like.
O=C1O[C@@H](Cn2ccnn2)CN1c1ccc(N2CCN(S(=O)(=O)c3ccccc3)CC2)c(F)c1 : n
O=C1O[C@@H](Cn2ccnn2)CN1c1ccc(N2CCN(S(=O)(=O)c3cccc(C(F)(F)F)c3)CC2)c(F)c1 : y
O=C1O[C@@H](Cn2ccnn2)CN1c1ccc(N2CCN(S(=O)(=O)c3cccc([N+](=O)[O-])c3)CC2)c(F)c1 : y

Please examine the following record next.
Inquiry: Please determine if O=C1O[C@@H](Cn2ccnn2)CN1c1ccc(N2CCNCC2)c(F)c1 is below 0.5 µg/mL in terms of MIC.
Reply text: n

----------
# System: Staphylococcus epidermidis
# experimental-protocol: Antibacterial activity against methicillin-resistant Staphylococcus epidermidis by microdilution broth method
# Format: functional
result-type: log10(MIC) (log10 of the value in µg/mL)
Log scale reminder: MIC in µg/mL, then log10 taken.

Please review the following examples before continuing.
O=C(OCc1ccccc1)N1CCN(c2ccc(N3C[C@H](Cn4ccnn4)OC3=O)cc2F)CC1 : -0.30
O=C1O[C@@H](Cn2ccnn2)CN1c1ccc(N2CCN(S(=O)(=O)c3ccc(Cl)cc3)CC2)c(F)c1 : -0.30
O=C1O[C@@H](Cn2ccnn2)CN1c1ccc(N2CCN(S(=O)(=O)c3cccc([N+](=O)[O-])c3)CC2)c(F)c1 : -0.30

Inquiry: Under Staphylococcus epidermidis, report log10(MIC) for O=C1O[C@@H](Cn2ccnn2)CN1c1ccc(N2CCN(S(=O)(=O)c3ccc(F)cc3)CC2)c(F)c1
Reply text: 0.00

Inquiry: Quote log10(MIC) with test system Staphylococcus epidermidis for COc1ccc(S(=O)(=O)N2CCN(c3ccc(N4C[C@H](Cn5ccnn5)OC4=O)cc3F)CC2)cc1
Reply text: 0.30

Inquiry: Enter recorded log10(MIC) with Staphylococcus epidermidis for CN[C@H](CC(C)C)C(=O)N[C@H]1C(=O)N[C@@H](CC(N)=O)C(=O)N[C@H]2C(=O)N[C@H]3C(=O)N[C@H](C(=O)N[C@H](C(=O)O)c4cc(O)cc(O)c4-c4cc3ccc4O)[C@H](O)c3ccc(c(Cl)c3)Oc3cc2cc(c3O[C@@H]2O[C@H](CO)[C@@H](O)[C@H](O)[C@H]2O[C@H]2C[C@](C)(N)[C@H](O)[C@H](C)O2)Oc2ccc(cc2Cl)[C@H]1O here.
Reply text: -0.60

Inquiry: Answer with log10(MIC) of O=C1O[C@@H](Cn2ccnn2)CN1c1ccc(N2CCN(S(=O)(=O)c3ccc([N+](=O)[O-])cc3)CC2)c(F)c1 measured for Staphylococcus epidermidis.
Reply text: 0.00

Inquiry: Answer with log10(MIC) of O=C1O[C@@H](Cn2ccnn2)CN1c1ccc(N2CCN(S(=O)(=O)c3cccs3)CC2)c(F)c1 measured for Staphylococcus epidermidis.
Reply text: 0.00

Inquiry: Recall the reported log10(MIC) of O=C1O[C@@H](Cn2ccnn2)CN1c1ccc(N2CCN(S(=O)(=O)c3ccccc3C(F)(F)F)CC2)c(F)c1 on Staphylococcus epidermidis and write it down.
Reply text: 0.30

Inquiry: Answer with log10(MIC) of O=C1O[C@@H](Cn2ccnn2)CN1c1ccc(N2CCN(S(=O)(=O)c3cccc(C(F)(F)F)c3)CC2)c(F)c1 measured for Staphylococcus epidermidis.
Reply text: -0.30

Inquiry: Give measured log10(MIC) for CC(=O)NC[C@H]1CN(c2ccc(N3CCOCC3)c(F)c2)C(=O)O1 (Staphylococcus epidermidis).
Reply text: -0.30

Inquiry: Fetch value of log10(MIC) on Staphylococcus epidermidis for O=C1O[C@@H](Cn2ccnn2)CN1c1ccc(N2CCN(S(=O)(=O)c3ccccc3)CC2)c(F)c1 .
Reply text: 0.30

Inquiry: Report log10(MIC) from Staphylococcus epidermidis testing of O=C1O[C@@H](Cn2ccnn2)CN1c1ccc(N2CCN(S(=O)(=O)c3ccc(Br)cc3)CC2)c(F)c1
Reply text: 0.60

Inquiry: Report log10(MIC) from Staphylococcus epidermidis testing of O=C1O[C@@H](Cn2ccnn2)CN1c1ccc(N2CCN(S(=O)(=O)c3cccc(F)c3)CC2)c(F)c1
Reply text: 0.00

Inquiry: Given O=C1O[C@@H](Cn2ccnn2)CN1c1ccc(N2CCN(S(=O)(=O)c3ccc(F)cc3F)CC2)c(F)c1 , report its log10(MIC) on Staphylococcus epidermidis.
Reply text: 0.00

Inquiry: Write down measured log10(MIC) (Staphylococcus epidermidis) for this compound. N#Cc1ccc(S(=O)(=O)N2CCN(c3ccc(N4C[C@H](Cn5ccnn5)OC4=O)cc3F)CC2)cc1
Reply text: 0.30

Inquiry: Determine reported log10(MIC) for O=C1O[C@@H](Cn2ccnn2)CN1c1ccc(N2CCNCC2)c(F)c1 ; test system: Staphylococcus epidermidis.
Reply text: 0.00
